target: Sterol 14-alpha demethylase (Trypanosoma cruzi (strain CL Brener)); experiment: GSK_TCAKS: pIC50 CYP51 from Trypanosoma cruzi.
Sequence (Q7Z1V1 whole entry): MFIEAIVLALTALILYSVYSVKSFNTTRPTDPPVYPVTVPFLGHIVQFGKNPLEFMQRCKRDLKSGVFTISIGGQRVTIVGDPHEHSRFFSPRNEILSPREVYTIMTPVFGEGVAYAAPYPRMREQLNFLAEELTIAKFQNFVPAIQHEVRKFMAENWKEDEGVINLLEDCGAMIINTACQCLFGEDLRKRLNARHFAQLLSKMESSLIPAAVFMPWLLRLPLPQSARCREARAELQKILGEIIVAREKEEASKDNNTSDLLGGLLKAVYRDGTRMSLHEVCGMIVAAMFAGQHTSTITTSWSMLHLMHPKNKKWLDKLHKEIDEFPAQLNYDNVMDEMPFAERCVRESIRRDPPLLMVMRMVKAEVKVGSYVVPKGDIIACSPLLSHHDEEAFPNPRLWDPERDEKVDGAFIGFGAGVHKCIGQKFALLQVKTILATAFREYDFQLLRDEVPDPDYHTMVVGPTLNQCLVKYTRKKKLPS
Recorded IC50 for the following compounds

| COMPOUND | IC50 |
| --- | --- |
| COc1ccc2nccc(NC(=O)C3(OC)CCN(CC(O)c4ccc5c(c4)OCCO5)CC3)c2n1 (stereo unspecified) | 1 µM |

The compound listed as CN1CCCN(C(=O)c2ccc(N3CCCC3)cc2Cl)CC1 shows IC50 equal to > 100 µM

The compound listed as NCc1csc(Nc2cc(Oc3ccccc3)ncn2)n1 shows IC50 equal to 0.316 µM

The compound listed as O=c1cc(NCCCNCc2c[nH]c3ccc(Br)cc23)[nH]c2ccccc12 shows IC50 equal to > 100 µM
